- measurement_target: Beta-secretase 1 (Homo sapiens, UniProt P56817)
- Sequence (P56817 whole entry): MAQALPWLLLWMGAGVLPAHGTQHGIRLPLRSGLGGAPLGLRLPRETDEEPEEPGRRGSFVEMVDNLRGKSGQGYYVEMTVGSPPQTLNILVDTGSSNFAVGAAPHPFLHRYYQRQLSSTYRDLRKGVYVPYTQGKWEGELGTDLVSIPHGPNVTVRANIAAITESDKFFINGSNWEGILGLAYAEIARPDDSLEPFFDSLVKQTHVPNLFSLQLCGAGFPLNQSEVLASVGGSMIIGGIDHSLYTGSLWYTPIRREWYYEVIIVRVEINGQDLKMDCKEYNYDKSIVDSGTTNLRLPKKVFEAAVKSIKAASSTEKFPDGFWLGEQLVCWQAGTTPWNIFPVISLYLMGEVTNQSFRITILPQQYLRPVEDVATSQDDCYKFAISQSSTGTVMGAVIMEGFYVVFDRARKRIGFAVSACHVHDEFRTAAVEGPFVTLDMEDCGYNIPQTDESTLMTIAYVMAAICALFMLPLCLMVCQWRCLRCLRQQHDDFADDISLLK
- method_description: Inhibition of human recombinant BACE-1 using acetyl-C(W8044-Eu)-EVNLDAEFK-QSY7 as substrate by TR-FRET assay
readout_kind: IC50 (µM)
Just the number please, in µM, no unit attached.

Record summary for O=C(N[C@@H](C(=O)Nc1cc(C(CO)NCc2ccccc2)ccc1C(=O)c1ccccc1)c1ccccc1)OCc1ccccc1 (stereo not given in full) : reported IC50 = 4.2

---

- measurement_target: Beta-secretase 1 (Homo sapiens, UniProt P56817)
- method_description: Inhibition of BACE1 in HEK293 cells expressing modified BACE cleavage sequence of APP, NFEV and K612V mutation
- Format: cell-based
pIC50: −log10 of the molar value.
Reported pIC50 by item:

[[record]]
compound = "O=C(N[C@H](C(=O)Nc1cc(C(O)CNCc2ccccc2)ccc1C(=O)c1ccccc1)c1ccccc1)OCc1ccccc1 (some centres undefined)"
measurement_target = "Beta-secretase 1 (Homo sapiens, UniProt P56817)"
obs_value = "< 5.59"


The value of pIC50 recorded for O=C(N[C@@H](C(=O)Nc1cc(C(O)CNCc2ccccc2)ccc1C(=O)c1ccccc1)c1ccccc1)OCc1ccccc1 (some centres undefined) when tested on Beta-secretase 1 (Homo sapiens, UniProt P56817) reads < 5.59

Response field pIC50 (Beta-secretase 1 (Homo sapiens, UniProt P56817)) for item O=C(N[C@H](C(=O)Nc1cc(C(CO)NCc2ccccc2)ccc1C(=O)c1ccccc1)c1ccccc1)OCc1ccccc1 (some centres undefined) : < 5.59

Response field pIC50 (Beta-secretase 1 (Homo sapiens, UniProt P56817)) for item O=C1Nc2cc(C(CO)NCc3ccccc3)ccc2C(c2ccccc2)=N[C@H]1c1ccccc1 (some centres undefined) : < 4.66
